Exercise: state measured IC50 for each of the compounds provided.
# target-or-system: purified 11β-HSD1 (recombinant, expressed in E. coli) (Homo sapiens, UniProt P28845)
# Sequence (P28845 whole entry): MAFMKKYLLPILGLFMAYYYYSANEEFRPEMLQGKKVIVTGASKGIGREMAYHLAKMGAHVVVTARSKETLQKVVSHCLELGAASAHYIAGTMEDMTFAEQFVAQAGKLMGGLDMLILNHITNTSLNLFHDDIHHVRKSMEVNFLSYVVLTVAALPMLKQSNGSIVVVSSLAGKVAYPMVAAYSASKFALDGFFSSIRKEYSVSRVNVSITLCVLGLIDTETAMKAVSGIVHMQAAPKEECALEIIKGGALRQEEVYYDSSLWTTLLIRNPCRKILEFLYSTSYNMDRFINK
# protocol: Inhibition of purified 11β-HSD1, Scintillation Proximity Assay
# condition-details: recombinant enzyme, 3H cortisone, NADPH, room temperature

Query: For the record C[C@]1(c2ccccc2)CN(C2C3CC4CC(C3)CC2C4)C(=O)O1 (stereo partly drawn) , what value of IC50 is listed for purified 11β-HSD1 (recombinant, expressed in E. coli) (Homo sapiens, UniProt P28845)?
Reply: < 0.05 µM

Query: Tell me reported IC50 for O=C1O[C@@H](C2CCCCC2)CN1C1C2CC3CC(C2)CC1C3 (stereo partly drawn) , tested with purified 11β-HSD1 (recombinant, expressed in E. coli) (Homo sapiens, UniProt P28845).
Reply: < 0.05 µM

Query: # query: IC50 | item CC[C@H]1CN(CC23CC4CC(CC(C4)C2)C3)C(=O)O1 | system: purified 11β-HSD1 (recombinant, expressed in E. coli) (Homo sapiens, UniProt P28845)
Reply: 0.05 to 1 µM

Query: GET /values?readout=IC50&system=purified 11β-HSD1 (recombinant, expressed in E. coli) (Homo sapiens, UniProt P28845)&item= O=C1O[C@@H](c2ccccc2)CN1CC12CC3CC(CC(C3)C1)C2
Reply: < 0.05 µM

Query: # value lookup — system purified 11β-HSD1 (recombinant, expressed in E. coli) (Homo sapiens, UniProt P28845), readout IC50, item CC(C)(C)[C@H]1CN(C2C3CC4CC(C3)CC2C4)C(=O)O1 (stereo partly drawn)
Reply: < 0.05 µM

Query: Find the measured IC50: item CC1CCN(CC23CC4CC(CC(C4)C2)C3)C(=O)O1 (stereo not drawn) , target or system purified 11β-HSD1 (recombinant, expressed in E. coli) (Homo sapiens, UniProt P28845).
Reply: 0.05 to 1 µM

Query: GET /values?readout=IC50&system=purified 11β-HSD1 (recombinant, expressed in E. coli) (Homo sapiens, UniProt P28845)&item= O=C1O[C@@H](C2CCCCC2)CN1CC12CC3CC(CC(C3)C1)C2
Reply: < 0.05 µM

Query: // lookup IC50 | system=purified 11β-HSD1 (recombinant, expressed in E. coli) (Homo sapiens, UniProt P28845) | key= CC(C)(C)[C@H]1CN(C2C3CC4CC(C3)CC2C4)C(=O)N1 (stereo partly drawn)
Reply: < 0.05 µM

Query: Request body: readout IC50, system purified 11β-HSD1 (recombinant, expressed in E. coli) (Homo sapiens, UniProt P28845), query O=C1OC(C2CCC(O)CC2)CN1CC12CC3CC(CC(C3)C1)C2 (single isomer, unassigned) [Example 22B] . Return the value.
Reply: 0.05 to 1 µM

Query: purified 11β-HSD1 (recombinant, expressed in E. coli) (Homo sapiens, UniProt P28845) / IC50 / O=C1O[C@@H](c2ccccc2Cl)CN1CC12CC3CC(CC(C3)C1)C2 : value?
Reply: < 0.05 µM

Query: Query for purified 11β-HSD1 (recombinant, expressed in E. coli) (Homo sapiens, UniProt P28845): what IC50 does the record show for O=C1O[C@@H](C2CCCCC2)CN1CC1C2CC3CC(C2)CC1C3 (stereo partly drawn) ?
Reply: 0.05 to 1 µM

Query: Requested read-out IC50, target or system purified 11β-HSD1 (recombinant, expressed in E. coli) (Homo sapiens, UniProt P28845), entry O=C1O[C@@H](Cc2ccccc2)CN1CC12CC3CC(CC(C3)C1)C2
Reply: 0.05 to 1 µM

Query: Short answer please: IC50, purified 11β-HSD1 (recombinant, expressed in E. coli) (Homo sapiens, UniProt P28845), entry O=C1OC(c2cccc(Cl)c2)CN1CC12CC3CC(CC(C3)C1)C2 (racemic)
Reply: 0.05 to 1 µM

Query: Observed IC50 on purified 11β-HSD1 (recombinant, expressed in E. coli) (Homo sapiens, UniProt P28845) for CN1C(=O)N(C2C3CC4CC(C3)CC2C4)C[C@@H]1C(C)(C)C (stereo partly drawn) , please.
Reply: < 0.05 µM

Query: Provide the documented IC50 with purified 11β-HSD1 (recombinant, expressed in E. coli) (Homo sapiens, UniProt P28845) as the system for O=C1O[C@H](c2ccccc2)CN1C1C2CC3CC(C2)CC1C3 (stereo partly drawn)
Reply: 0.05 to 1 µM

Query: Checklist item: IC50 tested on purified 11β-HSD1 (recombinant, expressed in E. coli) (Homo sapiens, UniProt P28845), entry C[C@@H]1[C@H](c2ccccc2)OC(=O)N1CC12CC3CC(CC(C3)C1)C2 , value?
Reply: < 0.05 µM

Query: purified 11β-HSD1 (recombinant, expressed in E. coli) (Homo sapiens, UniProt P28845) / IC50 / CC(C)C[C@H]1CN(C2C3CC4CC(C3)CC2C4)C(=O)O1 (stereo partly drawn) : value?
Reply: < 0.05 µM

Query: // map O=C1O[C@H](C2CCCCC2)CN1C1C2CC3CC(C2)CC1C3 (stereo partly drawn) to recorded IC50 (system: purified 11β-HSD1 (recombinant, expressed in E. coli) (Homo sapiens, UniProt P28845))
Reply: < 0.05 µM
